Source listed as patent US12139492B2.

# ASSAY_SYSTEM: BTK (Homo sapiens, UniProt Q06187)
# Sequence (Q06187 whole entry): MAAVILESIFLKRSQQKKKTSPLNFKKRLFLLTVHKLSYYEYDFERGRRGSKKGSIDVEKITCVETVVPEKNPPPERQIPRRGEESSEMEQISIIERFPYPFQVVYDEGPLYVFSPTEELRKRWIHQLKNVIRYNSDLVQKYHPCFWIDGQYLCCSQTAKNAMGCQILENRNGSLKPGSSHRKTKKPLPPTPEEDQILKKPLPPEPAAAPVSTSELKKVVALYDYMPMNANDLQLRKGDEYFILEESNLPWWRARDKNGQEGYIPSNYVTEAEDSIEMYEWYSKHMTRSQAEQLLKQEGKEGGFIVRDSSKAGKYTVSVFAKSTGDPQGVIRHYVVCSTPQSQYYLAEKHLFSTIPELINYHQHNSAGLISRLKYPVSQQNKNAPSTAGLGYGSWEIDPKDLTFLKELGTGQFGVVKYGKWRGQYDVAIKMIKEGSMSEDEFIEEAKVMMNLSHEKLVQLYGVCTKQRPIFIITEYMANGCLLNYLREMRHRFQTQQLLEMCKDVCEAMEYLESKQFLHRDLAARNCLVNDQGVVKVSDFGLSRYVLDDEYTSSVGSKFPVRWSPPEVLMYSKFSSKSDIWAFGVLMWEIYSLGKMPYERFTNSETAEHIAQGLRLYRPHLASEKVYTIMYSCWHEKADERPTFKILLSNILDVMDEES
# ASSAY_TEXT: BTK degradation, DC50 and Dmax of Table 1 (cell line not given)
# Format: cell-based
# Design: endogenous in cells
TEST_READOUT: Dmax

q: Requested read-out: Dmax. Entry: Nc1ncnc2c1c(-c1ccc(Oc3ccccc3)cc1)nn2[C@@H]1CCCN(CC2CCN(C(=O)N3CCC(CCN4CCN(c5ccc6c(c5)C(=O)N(C5CCC(=O)NC5=O)C6=O)CC4)CC3)CC2)C1 (some centres unmarked) [Compound 33]
a: > 90%

q: Find the recorded Dmax belonging to Nc1ncnc2c1c(-c1ccc(Oc3ccccc3)cc1)nn2[C@@H]1CCCN(CC2CCN(CCCN3CCN(c4ccc5c(c4)CN(C4CCC(=O)NC4=O)C5=O)CC3)CC2)C1 (some centres unmarked) [Compound 138] and report it.
a: > 75%

q: Dmax lookup needed for Nc1ncnc2c1c(-c1ccc(Oc3ccccc3)cc1)nn2[C@@H]1CCCN(C2CCN(CCN3CCN(c4ccc5c(c4)CN(C4CCC(=O)NC4=O)C5=O)CC3)CC2)C1 (some centres unmarked) [Compound 148] , thanks.
a: > 75%

q: What value of measured Dmax is listed for Nc1ncnc2c1c(-c1ccc(Oc3ccccc3)cc1)nn2[C@@H]1CCCN(C2CCN(CCCN3CCN(c4ccc5c(c4)CN(C4CCC(=O)NC4=O)C5=O)CC3)CC2)C1 (some centres unmarked) [Compound 152] ?
a: > 75%

q: Dear colleague, I am looking for the recorded Dmax of the following molecule: Nc1ncnc2c1c(-c1ccc(Oc3ccccc3)cc1)nn2C1CCN(C(=O)N2CCN(CCN3CCC(c4ccc5c(c4)CN(C4CCC(=O)NC4=O)C5=O)CC3)CC2)CC1 (centres unmarked) [Compound 100]
a: > 90%

* * *

# ASSAY_SYSTEM: BTK (Homo sapiens, UniProt Q06187)
# ASSAY_TEXT: BTK degradation, DC50 and Dmax of Table 1 (cell line not given)
# Type: cell-based
# Design: endogenous in cells
TEST_READOUT: Dmax

q: Quick one: Dmax for Nc1ncnc2c1c(-c1ccc(Oc3ccccc3)cc1)nn2C1CCN(C(=O)N2CCC(CC3CCN(c4ccc5c(c4)C(=O)N(C4CCC(=O)NC4=O)C5=O)CC3)CC2)CC1 (centres unmarked) ?
a: > 90%

q: Field request: Dmax | item: Nc1ncnc2c1c(-c1ccc(Oc3ccccc3)cc1)nn2[C@@H]1CCCN(C2CCN(C(=O)N3CCC(CCN4CCC(c5ccc6c(c5)C(=O)N(C5CCC(=O)NC5=O)C6=O)CC4)CC3)CC2)C1 (some centres unmarked)
a: > 75%

q: Could you share which Dmax value was measured for Nc1ncnc2c1c(-c1ccc(Oc3ccccc3)cc1)nn2[C@@H]1CCCN(CC2CCN(C(=O)N3CCC(C4CCN(c5ccc6c(c5)C(=O)N(C5CCC(=O)NC5=O)C6=O)CC4)CC3)CC2)C1 (some centres unmarked) ?
a: > 90%

q: Look up Dmax for this molecule: Nc1ncnc2c1c(-c1ccc(Oc3ccccc3)cc1)nn2C1CCCN(CCOCCC2CCN(c3ccc4c(c3)C(=O)N(C3CCC(=O)NC3=O)C4=O)CC2)C1 (centres unmarked)
a: > 75%

q: Dmax lookup needed for Nc1ncnc2c1c(-c1ccc(Oc3ccccc3)cc1)nn2C1CCN(CCOCCOCCC2CCN(c3ccc4c(c3)CN(C3CCC(=O)NC3=O)C4=O)CC2)CC1 (centres unmarked) , thanks.
a: > 90%

q: What value of Dmax has been recorded for this entry: Nc1ncnc2c1c(-c1ccc(Oc3ccccc3)cc1)nn2C1CCN(C(=O)N2CCC(CCN3CCN(c4ccc5c(c4)C(=O)N(C4CCC(=O)NC4=O)C5=O)CC3)CC2)CC1 (centres unmarked)
a: > 90%

q: Reported Dmax for Nc1ncnc2c1c(-c1ccc(Oc3ccccc3)cc1)nn2C1CCN(CC2CCN(C(=O)N3CCN(c4ccc5c(c4)CN(C4CCC(=O)NC4=O)C5=O)CC3)CC2)CC1 (centres unmarked) : what is it?
a: > 90%

q: Fill in: Dmax of Nc1ncnc2c1c(-c1ccc(Oc3ccccc3)cc1)nn2C1CCCN(CCOCCN2CCC(c3ccc4c(c3)C(=O)N(C3CCC(=O)NC3=O)C4=O)CC2)C1 (centres unmarked) is ___
a: > 75%

q: What value of Dmax has been reported for the following molecule? Nc1ncnc2c1c(-c1ccc(Oc3ccccc3)cc1)nn2C1CCN(C(=O)N2CCC(CCCC3CCN(c4ccc5c(c4)C(=O)N(C4CCC(=O)NC4=O)C5=O)CC3)CC2)CC1 (centres unmarked)
a: > 90%

q: Given the molecule Nc1ncnc2c1c(-c1ccc(Oc3ccccc3)cc1)nn2[C@@H]1CCCN(C2CCN(C(=O)N3CCC(C4CCN(c5ccc6c(c5)C(=O)N(C5CCC(=O)NC5=O)C6=O)CC4)CC3)CC2)C1 (some centres unmarked) , what is its reported Dmax?
a: > 75%

q: What does the record list as Dmax for Nc1ncnc2c1c(-c1ccc(Oc3ccccc3)cc1)nn2[C@@H]1CCCN(CC2CCN(CC3CCN(c4ccc5c(c4)C(=O)N(C4CCC(=O)NC4=O)C5=O)CC3)CC2)C1 (some centres unmarked) ?
a: > 75%

q: Given Nc1ncnc2c1c(-c1ccc(Oc3ccccc3)cc1)nn2[C@@H]1CCCN(C2CCN(C(=O)N3CCC(CN4CCC(c5ccc6c(c5)C(=O)N(C5CCC(=O)NC5=O)C6=O)CC4)CC3)CC2)C1 (some centres unmarked) , state its recorded Dmax.
a: > 90%

q: Given Nc1ncnc2c1c(-c1ccc(Oc3ccccc3)cc1)nn2C1CCCN(CCOCCOCCC2CCN(c3ccc4c(c3)C(=O)N(C3CCC(=O)NC3=O)C4=O)CC2)C1 (centres unmarked) , state its recorded Dmax.
a: > 90%

q: // returns reported Dmax for input Nc1ncnc2c1c(-c1ccc(Oc3ccccc3)cc1)nn2[C@@H]1CCCN(C(=O)N2CCC(CCCC3CCN(c4ccc5c(c4)C(=O)N(C4CCC(=O)NC4=O)C5=O)CC3)CC2)C1 (some centres unmarked)
a: > 75%

q: Please give the measured Dmax for this molecule: Nc1ncnc2c1c(-c1ccc(Oc3ccccc3)cc1)nn2[C@@H]1CCCN(C2CCN(C(=O)N3CCC(CN4CCN(c5ccc6c(c5)CN(C5CCC(=O)NC5=O)C6=O)CC4)CC3)CC2)C1 (some centres unmarked)
a: > 90%

q: Dear colleague, I am looking for the recorded Dmax of the following molecule: Nc1ncnc2c1c(-c1ccc(Oc3ccccc3)cc1)nn2[C@@H]1CCCN(C(=O)N2CCC(N3CCC(c4ccc5c(c4)C(=O)N(C4CCC(=O)NC4=O)C5=O)CC3)CC2)C1 (some centres unmarked)
a: > 90%

q: Look at this molecule and give its reported Dmax. Nc1ncnc2c1c(-c1ccc(Oc3ccccc3)cc1)nn2[C@@H]1CCCN(C(=O)N2CCN(CCCC3CCN(c4ccc5c(c4)CN(C4CCC(=O)NC4=O)C5=O)CC3)CC2)C1 (some centres unmarked)
a: > 75%

q: Please look up its Dmax: Nc1ncnc2c1c(-c1ccc(Oc3ccccc3)cc1)nn2[C@@H]1CCCN(C2CCN(C(=O)N3CCN(c4ccc5c(c4)C(=O)N(C4CCC(=O)NC4=O)C5=O)CC3)CC2)C1 (some centres unmarked)
a: > 50%

q: Which Dmax value is on record for Nc1ncnc2c1c(-c1ccc(Oc3ccccc3)cc1)nn2C1CCN(C(=O)N2CCC(CCN3CCC(c4ccc5c(c4)C(=O)N(C4CCC(=O)NC4=O)C5=O)CC3)CC2)CC1 (centres unmarked) ?
a: > 90%

q: Using the record for Nc1ncnc2c1c(-c1ccc(Oc3ccccc3)cc1)nn2C1CCN(C(=O)N2CCC(CCCN3CCN(c4ccc5c(c4)CN(C4CCC(=O)NC4=O)C5=O)CC3)CC2)CC1 (centres unmarked) , report its Dmax.
a: > 75%
